# Experimental target: human MMP-14 (human, UniProt P50281 112-541, limits assumed)
# Protocol details: cell-based or functional assay
Measurement kind: IC50 of MMP-14 inhibition (MMP-14 at 2 pM), IgG (nM)
Give bare numbers, in nM.

Binder | Unit of measurement | Reading
M0039-H08 IgG (antibody, V domains shown) VH: EVQLLESGGGLVQPGGSLRLSCAASGFTFSAYNMGWVRQAPGKGLEWVSSISSSGGYTGYADSVKGRFTISRDNSKNTLYLQMNSLRAEDTAVYYCARDLYRGFDYWGQGTLVTVSS VL: DIQMTQSPATLSVSPGERATLSCRASESVKNNLAWYQQKPGQAPRLLIYGVSTRAPGIPARFSGSGSGTDFTLTISSLEPEDFAVYYCQQRSNWPPVTFGQGTRLEIK | nM | 7.4

Count: 2. Required value per item: IC50 of MMP-14 inhibition (MMP-14 at 2 pM), IgG.
1. M0038-F08 IgG (antibody, V domains shown) VH: EVQLLESGGGLVQPGGSLRLSCAASGFTFSRYKMWWVRQAPGKGLEWVSGIRPSGGLTRYADSVKGRFTISRDNSKNTLYLQMNSLRAEDTAVYYCARRGDYVGGFDYWGQGTLVTVSS VL: DIQMTQSPGTLSLSPGERATLSCRASQSVSSSYLAWYQQKPGQAPRLLIYGASSRATGIPDRFSGSGSGTDFTLTISRLEPEDFAVYYCQHYGGSQAFGGGTKVEIK
2. M0040-A11 IgG (antibody, V domains shown) VH: EVQLLESGGGLVQPGGSLRLSCAASGFTFSHYVMFWVRQAPGKGLEWVSRIVPSGGATMYADSVKGRFTISRDNSKNTLYLQMNSLRAEDTAVYYCARDRPLYDSSGYVDYWGQGTLVTVSS VL: QSALTQPPSASGSPGQSVTISCTGTSSDVGAYNYVSWYQQHPDKAPKLIIYNVNERPSGVPDRFSGSKSGNTASLTVSGLQAEDEADYYCTSYAGSNKIGVSGTGTKVTVL

Outgoing:
1. 23
2. 6.7

Data provenance is patent US7745587.
